method: NFAT Signaling Pathway (AID 444);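 further: carbachol stimulus at about its EC50 of 1 µM final; on the % scale 0 is the no-effect control and ±100 the full control effect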
setup-conditions: Jurkat NFAT-bla M1, carbachol, beta-lactamase ratio, 5 h; at 7.69 µM (top of the series) unless noted
Procedure: NCGC Assay Overview: The nuclear factor of activated T cells (NFAT) family of transcription factors has been found primarily in most immune system cells and some other non-immune cells. NFAT plays the immunomodulatory role, primarily in T-cell activation and differentiation. […] NCGC Assay Protocol Summary: The cells were prepared in RPMI 1640 medium containing 0.1% dialyzed FBS and 25 mM HEPES at 1.6 x 10^6cell/ml. […] The %Activity was determined from the ratio of 460nm/530nm. […]
Results filed as inconclusive are left out.
# reported activity change, negative = inhibition; entries follow
// units = %; emit number, no label

Solved entries (count: 2):
> print(dat)
                           structure.smiles  measured.value
1  O=C(O)[C@H](CCc1ccccc1)N1C(=O)c2ccccc2C1=O           -3.82
2          Cc1cc(SCC(=O)c2ccccc2)nc2ccccc12            13.7

Challenge: Entry CN(C)[C@H]1C(=O)C(C(=O)NCN2CCCC2)=C(O)[C@]2(O)C(=O)C3=C(O)c4c(O)cccc4[C@](C)(O)[C@H]3C[C@H]12 : reported activity change, negative = inhibition = ?
Response given: 6.5

Challenge: Entry Cc1ccc(S(=O)(=O)N2CCC(C(=O)O)(c3ccccc3)CC2)cc1 : reported activity change, negative = inhibition = ?
Response given: 2.33

Challenge: Entry COCCn1c(=O)c(-c2cc(F)cc(F)c2)nc2cnc(Oc3ccc(OC)cc3)nc21 : reported activity change, negative = inhibition = ?
Response given: 0.515

Challenge: Entry OC(Cc1cccnc1)(c1ccccc1)c1ccccc1 : reported activity change, negative = inhibition = ?
Response given: -25.6

Challenge: Entry Nc1nc(-c2cccc([N+](=O)[O-])c2)cc(-c2cc(-c3cccc([N+](=O)[O-])c3)nc(N)n2)n1 : reported activity change, negative = inhibition = ?
Response given: 6.8

---

method: qHTS assay for small molecule antagonists of the retinoid-related orphan receptor gamma (ROR-gamma) signaling pathway - cell viability counter screen (AID 720652);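 further: CHO reporter cells with doxycycline-induced ROR-gamma expression; compound exposure lasted 16 hr before ATP read; on the % scale 0 is the no-effect control and ±100 the full control effect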
setup-conditions: RORgamma reporter cell line viability counter screen; series mostly up to 92.2 µM
Results filed as inconclusive are left out. Active and inactive are the calls of the source. Calls follow the shape of the dose curve; as a rule, active = well fitted cell-killing curve with a large enough effect in the repeat runs; inconclusive = weak or mixed curves, or effect the other way; inactive = flat fitted curve, though single readings scatter.
Bench note: report the call from T for active, F for inactive

Below are worked cases with known answers.
> print(dat)
                        molecule  answer.label
1               C=C(C#N)C(=O)OCC             F
2                Cc1ccc(O)c(N)c1             F
3  O=[N+]([O-])c1ccccc1Nc1ccccc1             F

Challenge: Fill in: this test's call for Brc1cc(Br)c(Oc2cc(Br)c(Br)cc2Br)cc1Br is ___
Response given: F

Challenge: Fill in: this test's call for NC(=O)Nc1nc2ccccc2[nH]1 is ___
Response given: F

Challenge: Fill in: this test's call for Nc1ccccc1O is ___
Response given: F

Challenge: Fill in: this test's call for Nc1ccc2c(c1)C(=O)c1ccccc1C2=O is ___
Response given: F

Challenge: Fill in: this test's call for CC(CCC(=O)O)(c1ccc(O)cc1)c1ccc(O)cc1 is ___
Response given: F

---

method: qHTS Assay for Inhibitors of Fructose-1,6-bisphosphate Aldolase from Giardia Lamblia: Giardia lamblia growth inhibition (AID 2785);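 further: trophozoites exposed to compound for 48 h at 37 °C; on the % scale 0 is the no-effect control and ±100 the full control effect; nearly all actives have a fitted effect of over 70% in size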
setup-conditions: Giardia lamblia trophozoite growth inhibition; series mostly up to 57.5 µM
Some of the results follow. Results filed as inconclusive are left out. The source made the active and inactive calls. The call rests on the fitted dose curve; in most records, active means well fitted inhibition curve with a large enough effect; inconclusive means small, poorly fitted or top-dose-only effect, or effect the other way; inactive means no such curve, though single readings can be large or run the other way.
result-type: activity change, negative = inhibition

Solved entries (count: 6):
> print(dat)
                           structure.smiles                             result.type                 measured.value
1  COc1cc(CN2CCN(Cc3ccc(C)cc3)CC2)c([N+](=O)[O-])cc1OC  activity change, negative = inhibition                       inactive
2   Clc1cccc(CN2COc3c(cc(Cl)c4cccnc34)C2)c1  activity change, negative = inhibition                       inactive
3  O=C(Nc1nnc(-c2ccco2)o1)c1ccc(S(=O)(=O)N2CCOCC2)cc1  activity change, negative = inhibition  7.93% [at 10.4 µM] (inactive)
4      O=C(CN1C(=O)COc2ccccc21)Nc1ccc(F)cc1  activity change, negative = inhibition                       inactive
5                         CSc1n[nH]c(=S)n1N  activity change, negative = inhibition                       inactive
6                 Cc1nc(N2CCOCC2)sc1C(=O)NN  activity change, negative = inhibition                       inactive

Challenge: Entry Cc1csc(NC(=O)CN2CCCCCC2)n1 : reported activity change, negative = inhibition = ?
Response given: 1.38% [at 10.4 µM] (inactive)

Challenge: Entry COCCN(C(=S)Nc1ccccc1OC)C1CCN(C(C)C)CC1 : reported activity change, negative = inhibition = ?
Response given: inactive

Challenge: Entry COc1ccc(OC)c(Nc2nc(-c3ccc(O)c(O)c3)cs2)c1 : reported activity change, negative = inhibition = ?
Response given: -10.8% [at 10.4 µM] (inactive)

Challenge: Entry Cn1nnc(NC(=S)NC(=O)c2ccccc2)n1 : reported activity change, negative = inhibition = ?
Response given: inactive

Challenge: Entry COc1ccc(CN2CCN(Cc3ccc(OC)c(OC)c3OC)CC2)cc1 : reported activity change, negative = inhibition = ?
Response given: 6.68% [at 10.4 µM] (inactive)

Challenge: Entry CC(C)(c1ccccc1)c1ccc(OCCN2CCCC2)cc1 : reported activity change, negative = inhibition = ?
Response given: inactive

---

Tested on: ICS
method: qHTS profiling for inhibitors of Plasmodium falciparum proliferation (AID 504749); further: nearly all actives have a fitted effect of over 60% in size
setup-conditions: P. falciparum in erythrocytes, SYBR Green DNA, 72 h; series mostly up to 28.7 µM
Results filed as inconclusive are left out. The source made the active and inactive calls. The call rests on the fitted dose curve; in most records, active means well fitted inhibition curve with a large enough effect; inconclusive means small, poorly fitted or top-dose-only effect; inactive means flat fitted curve, though single readings scatter.
Bench note: report the call from active, inactive

> print(dat)
                           structure.smiles  target.system  answer.label
1  C=C1CC[C@H](O)C/C1=C/C=C1\CCC[C@]2(C)[C@@H]([C@H](C)CCCC(C)C)CC[C@@H]12            ICS        active
2   O=C(O)[C@@H](O)[C@@H](O)[C@H](O)C(=O)CO            ICS      inactive
3  O=C(O)[C@@H](O)[C@@H](O)[C@H](O)[C@H](O)CO            ICS        active
4                              OC[C@H](S)CS            ICS        active

Challenge: Fill in: this test's call for N[C@@H](Cc1ccccc1)C(=O)O is ___
Response given: inactive

Challenge: Fill in: this test's call for CC(C)(C)NC[C@@H](O)c1ccc(O)c(CO)n1 is ___
Response given: inactive

Challenge: Fill in: this test's call for N[C@H](COP(=O)(O)O)C(=O)O is ___
Response given: inactive

Challenge: Fill in: this test's call for Cc1cn([C@H]2C[C@H](N=[N+]=[N-])[C@H](CO)O2)c(=O)[nH]c1=O is ___
Response given: inactive

Challenge: Fill in: this test's call for C[C@]12CC[C@H]3c4ccc(O)cc4CC[C@@H]3[C@H]1CC[C@@H]2OP(=O)(O)O is ___
Response given: inactive

Challenge: Fill in: this test's call for CCc1ccc2c(c1)N(C[C@H](C)CN(C)C)c1ccccc1S2 is ___
Response given: active

---

Test system: FAB9
method: qHTS profiling for inhibitors of Plasmodium falciparum proliferation (AID 504749); further: nearly all actives have a fitted effect of over 60% in size
setup-conditions: P. falciparum in erythrocytes, SYBR Green DNA, 72 h; series mostly up to 28.7 µM
Inconclusive results are not listed. The source made the active and inactive calls. Calls follow the shape of the dose curve; as a rule, active = well fitted inhibition curve with a large enough effect; inconclusive = small, poorly fitted or top-dose-only effect; inactive = flat fitted curve, though single readings scatter.
result-type: outcome

Solved entries (count: 6):
structure-smiles	outcome
C[C@]12CC[C@H]3c4ccc(O)cc4CC[C@@H]3[C@H]1CC[C@@H]2OP(=O)(O)O	inactive
C[C@H](CCC(=O)O)[C@H]1CC[C@@H]2[C@H]3[C@@H](C[C@@H](O)[C@]21C)[C@]1(C)CC[C@H](O)C[C@@H]1C[C@@H]3O	inactive
C=C1CC[C@H](O)C/C1=C/C=C1\CCC[C@]2(C)[C@@H]([C@H](C)CCCC(C)C)CC[C@@H]12	inactive
N[C@H](COP(=O)(O)O)C(=O)O	inactive
N[C@@H](Cc1ccccc1)C(=O)O	inactive
COc1cc2nc(N(C)CCCNC(=O)[C@@H]3CCCO3)nc(N)c2cc1OC	inactive

Challenge: Entry Cc1onc(-c2c(F)cccc2Cl)c1C(=O)N[C@@H]1C(=O)N2[C@H]1SC(C)(C)[C@H]2C(=O)O : reported outcome = ?
Response given: inactive

Challenge: Entry C=C(NC(=O)C(=C)NC(=O)c1csc(C2=N[C@@H]3c4csc(n4)[C@@H]4NC(=O)c5csc(n5)[C@@H]([C@](C)(O)[C@H](C)O)NC(=O)[C@@H]5CSC(=N5)/C(=C/C)NC(=O)[C@@H]([C@H](C)O)NC(=O)c5csc(n5)[C@]3(CC2)NC(=O)[C@@H](C)NC(=O)C(=C)NC(=O)[C@@H](C)NC(=O)[C@@H]([C@@H](C)CC)N[C@H]2C=Cc3c([C@H](C)O)cc(nc3[C@@H]2O)C(=O)O[C@H]4C)n1)C(N)=O : reported outcome = ?
Response given: inactive

Challenge: Entry C[C@]12CC[C@H]3c4ccc(O)cc4CC[C@@H]3[C@H]1CC[C@@H]2OC(=O)CCC1CCCC1 : reported outcome = ?
Response given: inactive

Challenge: Entry O=C(O)[C@@H](O)[C@@H](O)[C@H](O)C(=O)CO : reported outcome = ?
Response given: inactive
